Source: ChEMBL document CHEMBL1201862

tested on: SN12C; assay: NCI tumour cell line growth inhibition, 48 h
Activity calls are given as the source filed them. Cut-off read from the data, not from the text of the source: active = GI50 up to about 1.1 µM and inactive = higher.
RECORDED_ENDPOINT: GI50

Incoming: Query the reported GI50 for SN12C; item: CCCCOCCOC1=CC(=O)c2c(O)ccc(O)c2C1=O
Outgoing: 1.66 µM (inactive)

Incoming: Record: CC1=NN(c2ccccc2)C(=O)C1/N=N/c1ccc([As](=O)(O)O)c(O)c1 (stereo not given)
Outgoing: > 100 µM (inactive)

Incoming: Record: CC(/C=N/N(C)C1=NCCCN1)=N/N(C)C1=NCCCN1
Outgoing: > 100 µM (inactive)

Incoming: Record: CCOc1nc2sc3c(c2c(=O)n1CCSSCCn1c(OCC)nc2sc4c(c2c1=O)CCCC4)CCCC3
Outgoing: > 100 µM (inactive)

Incoming: Record: CC(=O)OCC12C(OC(C)=O)C(=O)C3C(OC(C)=O)C14OC3(C)COC(=O)c1cccnc1C(C)C(C)C(=O)OC(C(OC(C)=O)C2OC(C)=O)C4(C)O (stereo not given)
Outgoing: > 100 µM (inactive)

----------
test system: OVCAR-3; assay: NCI tumour cell line growth inhibition, 48 h
Active and inactive are the calls of the source. Rule as the data show it: active = GI50 up to about 1.1 µM and inactive = higher.
Outcome (select one): active, inactive

Illustrative cases are given below, each with its answer.
COMPOUND: CC(=O)Nc1ccc(/N=N\c2c(O)c(S(=O)(=O)O)cc3cc(S(=O)(=O)O)ccc23)cc1
CLASSIFICATION: inactive

COMPOUND: COC(=O)C(=O)CC(=O)CCn1ncc(Cl)c(Cl)c1=O
CLASSIFICATION: inactive

COMPOUND: C=Cc1ccc(C)[n+](C[Si](C)(C)O[Si](C)(C)C[n+]2cc(C=C)ccc2C)c1
CLASSIFICATION: inactive

COMPOUND: CC12CCC(=O)N1c1ccc([N+](=O)[O-])cc1N2 (stereo not given)
CLASSIFICATION: inactive

COMPOUND: C=C(C)[C@@H]1CCC2=C[C@H](C/C(C)=C\C3=CC(C)=C(O3)[C@H]1O)OC2=O
CLASSIFICATION: inactive

COMPOUND: CC(C)Oc1c(-c2ccc(F)cc2)c(O)c2c3c1oc(=O)n3C=CC2C (stereo not given)
CLASSIFICATION: inactive

COMPOUND: CCOC(=O)NC(=O)c1cn(CCCO)c(=O)[nH]c1=O
CLASSIFICATION: inactive

COMPOUND: CCCCN(CCCC)CCCn1cnc2ncccc2c1=O
CLASSIFICATION: inactive

Incoming: Called result for COC(=O)C1(Cc2ccccc2)Cc2cc3c(cc2C1O)CCC3 (stereo not given)
Outgoing: inactive

Incoming: Record: Cc1ccccc1OC(C)C(=O)NN1C(=O)CSC1c1ccccc1 (stereo not given)
Outgoing: inactive

Incoming: Record: COc1nc2ccc(CNc3ccc(C(=O)NC(CCC(=O)O)C(=O)O)cc3)cc2nc1OC (stereo not given)
Outgoing: inactive

Incoming: Record: CSc1ccc2c(cc1=O)C(NC(=O)c1ccc(OC(C)=O)cc1)CCc1cc(O)c(O)c(O)c1-2 (stereo not given)
Outgoing: inactive

Incoming: Record: O=C(N/N=C\c1ccc([N+](=O)[O-])cc1)Nc1cccc2ccccc12
Outgoing: inactive

----------
test system: EKVX; test: NCI tumour cell line growth inhibition, 48 h
Calls of active or inactive are those of the source. Cut-off read from the data, not from the text of the source: active = GI50 up to about 1.1 µM and inactive = higher. Positions of bridges follow the written chain, without caps; N, C: chain ends. Where a SMILES comes first, the peptide text is derived from it. Residues, ends and D or L forms follow the SMILES beside them. Bridges are numbered along the chain shown (N, C = ends). [ ]: non-standard residue; d: D form. The star is where a group is joined. ξ: configuration not given here. X28 = O=C(/C=C/C=C/C=C/C=C/C=C/C(=O)*)NC1=C(O)CCC1=O; NMeA = CN[C@@H](C)C(=O)O; ξF = NC(Cc1ccccc1)C(=O)O; ξA = CC(N)C(=O)O
Outcome (select one): true (1) for active, false (0) for inactive

Illustrative cases are given below, each with its answer.
MOLECULE: CCC(C)C1NC(=O)C(CC(C)C)NC(=O)C(C(C)C)NC(=O)C2CSSCC(NC1=O)C(=O)N2 (stereo not given) (cyclo(CCVLI); disulfide 1-2; configuration not given here)
CLASSIFICATION: true (1)

MOLECULE: CN(CCN(C)C(=O)CCOS(C)(=O)=O)C(=O)CCOS(C)(=O)=O
CLASSIFICATION: false (0)

Incoming: Called result for O=C(/C=C/c1ccc(OCCCOc2ccc(/C=C/C(=O)c3ccccc3)cc2)cc1)c1ccccc1
Outgoing: false (0)

Incoming: Record: Cc1cc2c(=O)c3ccc(Cl)cc3[nH]c2c(C(=O)O)c1C
Outgoing: false (0)

Incoming: Record: CC1NC(=O)[C@H](C)N(C)C(=O)[C@@H]2CCCN2C(=O)[C@@H](NC(=O)C(Cc2ccccc2)NC(=O)/C=C/C=C/C=C/C=C/C=C/C(=O)NC2=C(O)CCC2=O)COC(=O)[C@@H]2CCCN2C1=O (stereo not given in full) (X28-[ξF]SP[NMeA][ξA]P; ester 2-C)
Outgoing: false (0)
